tested on: KAI1 promoter; assay: KAI1 promoter luciferase reporter assay in transfected Caco2 cells; assay type: cell-based, human; details: Homo sapiens, Caco-2, 16 h, read-out: Relative KAI promoter activity
fold induction at 1 µM values for the compounds below.
reported-endpoint: fold induction at 1 µM

[[record]]
compound = "O=C(CNC(=O)c1ccccc1F)c1ccccc1 [Example 3]"
reported_endpoint = "fold induction at 1 µM"
numeric_result = 2.12

[[record]]
compound = "O=C(CNC(=O)c1ccccc1Cl)c1ccccc1 [Example 6]"
reported_endpoint = "fold induction at 1 µM"
numeric_result = 1.91

[[record]]
compound = "O=C(CNC(=O)c1ccc(Cl)cc1)c1ccccc1 [Example 1]"
reported_endpoint = "fold induction at 1 µM"
numeric_result = 1.7

[[record]]
compound = "O=C(CNC(=O)c1ccc(F)cc1)c1ccccc1 [Example 4]"
reported_endpoint = "fold induction at 1 µM"
numeric_result = 1.88

[[record]]
compound = "CC(Oc1ccccc1)C(=O)NCC(=O)c1ccccc1 (stereo not drawn) [Example 2]"
reported_endpoint = "fold induction at 1 µM"
numeric_result = 1.14

[[record]]
compound = "O=C(CNC(=O)c1ccco1)c1ccccc1 [Example 5]"
reported_endpoint = "fold induction at 1 µM"
numeric_result = 1.98


====

system: KAI1 promoter; assay: KAI1 promoter luciferase reporter assay in transfected Caco2 cells; assay type: cell-based, human; conditions: Homo sapiens, Caco-2, 16 h, 1 μM compound, 16 hours, transfected Caco2 cells, luciferase activity relative to DMSO control (=1); read-out: Relative KAI promoter activity
reported-endpoint: fold induction at 1 µM

[[record]]
compound = "O=C(CNS(=O)(=O)c1ccc(Cl)cc1)c1ccc(Cl)cc1 [Example 69]"
numeric_result = 0.84

[[record]]
compound = "O=C(CNC(=O)c1cccc(Cl)c1Cl)c1ccccc1 [Example 37]"
numeric_result = 1.17

[[record]]
compound = "CCC(=O)NCC(=O)c1ccccc1 [Example 14, N-(2-oxo-2-phenylethyl)propionamide]"
numeric_result = 1.02

[[record]]
compound = "O=C(CNC(=O)c1ccc(CN2CCOCC2)cc1)c1ccccc1 [Example 276]"
numeric_result = 3.39

[[record]]
compound = "O=C(CNC(=O)c1cccc(OC(F)(F)F)c1)c1ccccc1 [Example 39]"
numeric_result = 1.21

[[record]]
compound = "O=C(CNC(=O)c1ccccc1OC1CCN(C(=O)c2ccc(F)cc2F)CC1)c1ccccc1 [Example 177]"
numeric_result = 0.95

[[record]]
compound = "CCCCN(CC)Cc1cccc(C(=O)NCC(=O)c2ccccc2)c1 [Example 249]"
numeric_result = 1.35

[[record]]
compound = "CN(C)c1ccc(C(=O)CNS(=O)(=O)c2ccc(F)cc2)cc1 [Example 107]"
numeric_result = 2.07

[[record]]
compound = "COc1ccc(C(=O)NCC(=O)c2ccc(Cl)cc2)cc1 [Example 52]"
numeric_result = 1.36


====

system: KAI1 promoter; assay: KAI1 promoter luciferase reporter assay in transfected Caco2 cells; type: cell-based, human; conditions: Homo sapiens, Caco-2, 16 h, 1 μM compound, 16 hours, transfected Caco2 cells, luciferase activity relative to DMSO control (=1); read-out: Relative KAI promoter activity
reported-endpoint: fold induction at 1 µM

[[record]]
compound_structure_string = "O=C(CNC(=O)c1cccc(Cl)c1)c1ccc(Cl)cc1"
result = 0.76

[[record]]
compound_structure_string = "COc1ccc(S(=O)(=O)NCC(=O)c2ccc(Cl)cc2)cc1"
result = 0.85

[[record]]
compound_structure_string = "O=C(CNC(=O)c1ccc(F)cc1Cl)c1ccc(Cl)cc1"
result = 0.83

[[record]]
compound_structure_string = "O=C(CNC(=O)C1CC1)c1ccccc1"
result = 0.92

[[record]]
compound_structure_string = "O=C(COc1ccccc1C(=O)NCC(=O)c1ccccc1)Nc1cc(C(F)(F)F)ccc1F"
result = 1.2

